System: UO-31 renal
PROCEDURE DETAILS: NCI-60 one-dose screen, 48 h (100 = growth as untreated, 0 = no growth, -100 = all killed)
PROTOCOL CONDITIONS: 10 µM unless noted
Compounds without any hit were thinned out: in the full panel of roughly 83,000, 20% have a hit.
Reported growth is given for each of the following molecules.
Record the value in %, omitting the unit from your answer.

Worked examples follow.
{"columns": ["MOLECULE", "growth (%)"],
 "data": [
  ["CCCCN(CCCC)CCC(C)(O)c1cc2ccccc2c2ccccc12 (stereo not given)", 50.9],
  ["CC1=NNC(=O)C1C (stereo not given)", 88.2],
  ["O=C1C=CC(=O)N1c1ccc(Cc2ccc(N3C(=O)C=CC3=O)cc2)cc1", 81.9],
  ["CCCCCCNC(=O)Oc1ccc(/C(=C(\\C)c2ccccc2)c2ccc(OCCN(CC)CC)cc2)cc1", 28.8],
  ["Cc1nn(-c2ccccc2)c2nc(C)n(-c3ccc(Br)cc3)c(=O)c12", 34.1],
  ["O=C1Nc2ccccc2C12CC(c1ccccc1)=NN2 (stereo not given)", 57.6],
  ["COc1ccc(-c2nn(-c3ccccc3)cc2/C=C2\\SC(=O)NC2=O)cc1", 80],
  ["O=C(/C=C\\c1cccc([N+](=O)[O-])c1)c1ccccc1", -64.5],
  ["COc1ccc(CN2C(=O)/C(=C\\c3cc(OC)c(OC)c(OC)c3)c3cc(OC)ccc32)cc1", 6.01]
]}

Here is the next item to consider.
query: Notebook entry, UO-31 renal assay: growth of COC(=O)C12C3C(=O)N(c4ccc(OC)cc4)C(=O)C3C(c3cn(-c4ccccc4)nc3C)N1[C@H](c1cn(-c3ccccc3)nc1C)[C@@H]1C(=O)N(c3ccc(OC)cc3)C(=O)[C@@H]12 (stereo not given in full) = ?
result: 97.1

---

System: PC-3 prostate
PROCEDURE DETAILS: NCI-60 one-dose screen, 48 h (100 = growth as untreated, 0 = no growth, -100 = all killed)
PROTOCOL CONDITIONS: 10 µM unless noted
Compounds without any hit were thinned out: in the full panel of roughly 83,000, 20% have a hit.
ENDPOINT LABEL: growth (%)
Record the value in %, omitting the unit from your answer.

Worked examples follow.
{"columns": ["COMPOUND", "UNITS SYMBOL", "growth"],
 "data": [
  ["CCCCNC(=O)NS(=O)(=O)c1ccc(N2N=C(c3cc(C)ccc3C)CC2c2cc(OC)c(OC)c(OC)c2)cc1 (centres undefined)", "%", 36.9],
  ["O=[N+]([O-])c1c(F)cccc1Nc1cccc(F)c1", "%", 103]
]}

query: Notebook entry, PC-3 prostate assay: growth of COc1ccc(-c2c3c(nc4n[nH]c(-c5ccc(Cl)cc5)c24)-c2ccccc2C(=O)C3=O)cc1 = ?
result: 7.97

query: Notebook entry, PC-3 prostate assay: growth of CCOC(=O)c1c2c(n3ccc(NC(=O)CCN4CCOCC4)cc13)C(=O)c1ncccc1C2=O = ?
result: 51

---

System: SK-OV-3 ovarian
PROCEDURE DETAILS: NCI-60 one-dose screen, 48 h (100 = growth as untreated, 0 = no growth, -100 = all killed)
PROTOCOL CONDITIONS: 10 µM unless noted
This is part of a sample that, as a whole, favours compounds with a hit. Of some 83,000 tested, about 20% had one in any assay.
// label = Condition met if growth is not less than 70%, otherwise Condition not met

query: Hi team, for Nc1nc2ccc(-c3nc4ccc5[nH]ncc5c4c4c3CCC4)cc2s1 , is the recorded growth at or above 70%?
result: Condition not met

query: Hi team, for NS(=O)(=O)N(c1cc(C(F)(F)F)cc(C(F)(F)F)c1)C1CCN(Cc2ccc(F)cc2)CC1 , is the recorded growth at or above 70%?
result: Condition met

query: Hi team, for Cc1cc(Nc2nc(N3CCOCC3)nc3ccccc23)n[nH]1 , is the recorded growth at or above 70%?
result: Condition not met

query: Hi team, for COc1ccc(-c2cnoc2-c2cc(OC)c3c(c2)OCCO3)cc1 , is the recorded growth at or above 70%?
result: Condition not met

Cited source for all entries: PubChem BioAssay (NCI)
